Numbers sourced from ChEMBL document CHEMBL4513216.

Tested on: Plasmodium berghei
assay details: Screen against P. berghei liver stage (PbLuc), transformed with Luciferase, at 10uM
Assay type: functional, HepG2
stated conditions: tested at 10 uM
About 8,600 (12%) of roughly 69,000 compounds showed an effect of 50% or more. For the sample, strong results were picked, then their nearest neighbours and some compounds at random.
Kind request: treat 30% as inclusive, so INHIBITION at 30% or higher is Criterion met, anything lower is Criterion not met.

Exam item: Is the recorded value of INHIBITION equal to or greater than 30% for this molecule? COc1cccc(CC(=O)N2CCCC(n3nc(C)cc3C)C2)c1 (stereo unspecified)
Marked response: Criterion not met

Exam item: Is the recorded value of INHIBITION equal to or greater than 30% for this molecule? COc1cccc(CNC(=O)C(C)N2CC(n3nc(C)cc3C)C2)c1 (stereo unspecified)
Marked response: Criterion met

Exam item: Is the recorded value of INHIBITION equal to or greater than 30% for this molecule? COc1cccc(CN(C)C(=O)CN2CC(n3nc(C)cc3C)C2)c1
Marked response: Criterion met

Exam item: Is the recorded value of INHIBITION equal to or greater than 30% for this molecule? Cc1nc(N2CCN(C)CC2)ncc1C(=O)N1C[C@@H](C)[C@@](C)(O)C1
Marked response: Criterion met

Exam item: Is the recorded value of INHIBITION equal to or greater than 30% for this molecule? O=C(Nc1cc(C(F)(F)F)c[nH]c1=O)N1CCSCC1
Marked response: Criterion not met

Exam item: Is the recorded value of INHIBITION equal to or greater than 30% for this molecule? O=C(NCC1CCS(=O)(=O)C1)N(Cc1ccccn1)C1CC1 (stereo unspecified)
Marked response: Criterion not met
